- assayed_target: endogenous phosphorylated LRRK2 (S935) (Homo sapiens)
- Construct: Detection of endogenous phosphorylated LRRK2 (S935) in A549 cells; endogenous in cells; host or cells: A549
- Sequence (Q5S007 whole entry): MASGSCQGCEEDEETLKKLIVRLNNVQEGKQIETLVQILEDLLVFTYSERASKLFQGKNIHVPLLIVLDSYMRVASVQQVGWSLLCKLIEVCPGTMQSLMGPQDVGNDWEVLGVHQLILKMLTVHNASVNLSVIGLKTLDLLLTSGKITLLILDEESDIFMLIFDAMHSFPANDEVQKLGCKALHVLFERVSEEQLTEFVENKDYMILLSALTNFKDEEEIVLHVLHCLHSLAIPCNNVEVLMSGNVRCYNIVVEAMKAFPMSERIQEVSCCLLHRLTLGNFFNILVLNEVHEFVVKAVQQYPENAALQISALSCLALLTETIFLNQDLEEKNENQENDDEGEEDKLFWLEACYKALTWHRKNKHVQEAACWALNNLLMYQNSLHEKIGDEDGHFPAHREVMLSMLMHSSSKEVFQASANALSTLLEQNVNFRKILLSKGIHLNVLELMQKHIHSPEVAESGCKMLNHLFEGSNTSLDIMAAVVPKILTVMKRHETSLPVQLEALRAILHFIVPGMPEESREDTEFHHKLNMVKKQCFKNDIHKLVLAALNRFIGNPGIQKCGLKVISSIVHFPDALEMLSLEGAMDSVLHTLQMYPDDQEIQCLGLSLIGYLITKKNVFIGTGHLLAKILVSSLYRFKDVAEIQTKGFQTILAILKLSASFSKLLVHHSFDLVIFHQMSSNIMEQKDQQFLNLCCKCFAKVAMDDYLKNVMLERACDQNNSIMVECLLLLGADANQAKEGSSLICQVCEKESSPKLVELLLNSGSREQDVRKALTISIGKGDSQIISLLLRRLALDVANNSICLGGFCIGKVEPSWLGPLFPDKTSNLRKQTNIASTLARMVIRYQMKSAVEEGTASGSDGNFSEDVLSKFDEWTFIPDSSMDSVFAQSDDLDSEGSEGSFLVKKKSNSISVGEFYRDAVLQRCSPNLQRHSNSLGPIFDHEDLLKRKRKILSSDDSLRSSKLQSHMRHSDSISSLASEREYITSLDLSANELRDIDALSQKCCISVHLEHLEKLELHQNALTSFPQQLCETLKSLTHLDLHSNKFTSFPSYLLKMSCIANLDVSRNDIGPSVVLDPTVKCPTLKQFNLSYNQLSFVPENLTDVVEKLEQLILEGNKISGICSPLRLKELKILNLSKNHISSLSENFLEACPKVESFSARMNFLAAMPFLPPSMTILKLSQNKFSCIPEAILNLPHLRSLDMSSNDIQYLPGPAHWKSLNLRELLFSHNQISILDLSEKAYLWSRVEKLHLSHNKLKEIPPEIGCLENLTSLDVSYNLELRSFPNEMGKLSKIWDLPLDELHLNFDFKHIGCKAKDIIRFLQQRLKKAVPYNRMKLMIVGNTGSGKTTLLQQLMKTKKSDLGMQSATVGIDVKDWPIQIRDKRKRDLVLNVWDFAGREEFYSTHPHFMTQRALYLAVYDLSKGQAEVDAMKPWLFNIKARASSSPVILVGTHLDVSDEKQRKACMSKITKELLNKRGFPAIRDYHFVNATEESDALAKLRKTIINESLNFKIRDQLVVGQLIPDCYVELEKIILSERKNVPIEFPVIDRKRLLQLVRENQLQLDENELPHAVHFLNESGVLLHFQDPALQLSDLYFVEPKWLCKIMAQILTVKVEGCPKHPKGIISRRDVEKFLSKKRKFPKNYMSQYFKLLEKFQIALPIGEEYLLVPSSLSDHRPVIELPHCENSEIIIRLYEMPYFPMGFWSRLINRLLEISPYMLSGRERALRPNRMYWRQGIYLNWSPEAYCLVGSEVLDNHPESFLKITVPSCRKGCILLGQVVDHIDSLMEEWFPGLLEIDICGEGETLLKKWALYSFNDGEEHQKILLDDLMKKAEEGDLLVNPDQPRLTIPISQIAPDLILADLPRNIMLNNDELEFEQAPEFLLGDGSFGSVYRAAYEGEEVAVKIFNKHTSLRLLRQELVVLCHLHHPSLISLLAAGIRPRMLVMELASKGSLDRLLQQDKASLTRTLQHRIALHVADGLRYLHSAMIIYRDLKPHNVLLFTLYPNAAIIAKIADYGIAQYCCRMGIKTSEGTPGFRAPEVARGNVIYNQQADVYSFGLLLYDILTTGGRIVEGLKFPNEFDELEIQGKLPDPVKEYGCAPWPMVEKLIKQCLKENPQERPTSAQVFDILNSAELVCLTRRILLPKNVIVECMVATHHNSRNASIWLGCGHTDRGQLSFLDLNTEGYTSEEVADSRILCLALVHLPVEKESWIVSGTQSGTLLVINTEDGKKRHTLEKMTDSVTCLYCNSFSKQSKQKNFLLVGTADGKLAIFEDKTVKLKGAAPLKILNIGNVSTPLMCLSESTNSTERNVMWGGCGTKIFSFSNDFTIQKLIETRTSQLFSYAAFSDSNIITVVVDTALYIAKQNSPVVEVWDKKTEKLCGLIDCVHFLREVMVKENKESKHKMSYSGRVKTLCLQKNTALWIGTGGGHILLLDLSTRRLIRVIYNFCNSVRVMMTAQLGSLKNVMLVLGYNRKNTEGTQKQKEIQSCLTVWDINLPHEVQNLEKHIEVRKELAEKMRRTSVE
- procedure_summary: detection of endogenous phosphorylated LRRK2 (S935) in A549 cells (Western blot)
- Type: cell-based
- experimental_setup: at 1 µM, LRRK2 (S935) activity in A549 cells, 15 hours; read-out: Inhibition rate
attribute_measured: inhibition at 1 µM

molecule	assayed_target	inhibition at 1 µM
Cc1cnc(Nc2ccc3c(c2)OCCN(C)CCO3)nc1O[C@H]1CC[C@@](C)(O)CC1 [Example 101]	endogenous phosphorylated LRRK2 (S935) (Homo sapiens)	40 to 79%

I would be grateful if you could share the reported inhibition at 1 µM for COCc1ccccc1Nc1nc(Nc2ccc3c(c2)OCCN(C)CCO3)ncc1C(F)(F)F [Example 94] .
> 0%

What do we get for CN1CCOc2ccc(Nc3ncc(Cl)c(O[C@H]4CC[C@@](C)(O)CC4)n3)cc2OCC1 [Example 102] ?
> 0%

Now consider CN1CCOc2ccc(Nc3ncc(F)c(O[C@H]4CC[C@@](C)(O)CC4)n3)cc2OCC1 [Example 100] .
40 to 79%

Please answer likewise for CN1CCOc2ccc(Nc3ncc(C(F)(F)F)c(NCC4(C#N)CC4)n3)cc2OCC1 [Example 96]
> 0%

----------
Reported pEC50 values follow for various molecules
- assayed_target: JAK2 (Mus musculus, UniProt Q62120)
- Construct: endogenous in cells; host or cells: BAF3
- Sequence (Q62120 whole entry): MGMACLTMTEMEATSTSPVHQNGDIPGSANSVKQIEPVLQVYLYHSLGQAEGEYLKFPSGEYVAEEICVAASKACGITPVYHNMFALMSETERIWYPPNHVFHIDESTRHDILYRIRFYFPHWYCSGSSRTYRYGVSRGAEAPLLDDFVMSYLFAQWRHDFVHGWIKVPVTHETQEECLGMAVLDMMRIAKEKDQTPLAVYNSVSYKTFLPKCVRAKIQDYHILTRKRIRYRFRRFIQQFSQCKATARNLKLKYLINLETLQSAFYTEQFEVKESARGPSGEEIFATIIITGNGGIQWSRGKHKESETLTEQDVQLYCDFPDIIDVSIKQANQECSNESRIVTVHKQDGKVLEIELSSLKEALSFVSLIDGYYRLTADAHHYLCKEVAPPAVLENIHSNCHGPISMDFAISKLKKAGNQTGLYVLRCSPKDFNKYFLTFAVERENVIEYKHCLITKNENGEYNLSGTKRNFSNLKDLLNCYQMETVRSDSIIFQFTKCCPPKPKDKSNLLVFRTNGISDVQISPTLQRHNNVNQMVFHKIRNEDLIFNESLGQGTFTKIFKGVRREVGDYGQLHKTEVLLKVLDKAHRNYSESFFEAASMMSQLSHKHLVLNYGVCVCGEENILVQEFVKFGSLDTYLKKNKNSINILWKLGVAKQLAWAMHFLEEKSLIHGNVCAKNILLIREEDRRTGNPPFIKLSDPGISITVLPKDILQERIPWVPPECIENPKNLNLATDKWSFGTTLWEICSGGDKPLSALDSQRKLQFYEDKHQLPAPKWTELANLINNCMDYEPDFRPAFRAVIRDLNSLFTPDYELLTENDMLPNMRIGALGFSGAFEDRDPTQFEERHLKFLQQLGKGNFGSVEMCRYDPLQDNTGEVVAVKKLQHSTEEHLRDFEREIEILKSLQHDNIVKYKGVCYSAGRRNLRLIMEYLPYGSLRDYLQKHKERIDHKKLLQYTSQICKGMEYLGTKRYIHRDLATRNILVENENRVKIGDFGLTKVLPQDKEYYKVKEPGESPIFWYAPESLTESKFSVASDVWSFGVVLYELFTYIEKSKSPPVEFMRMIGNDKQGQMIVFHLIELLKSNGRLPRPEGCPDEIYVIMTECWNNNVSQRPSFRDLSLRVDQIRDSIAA
- procedure_summary: JAKs cell activity test: JAK2_pSTAT5 in IL-3-induced BAF3 cells
- Type: cell-based
- experimental_setup: pSTAT5, IL-3-induced BAF3 cells
pEC50: −log10 of the molar value.

Below are worked cases with known answers.
molecule	pEC50
CN1CCOc2ccc(Nc3nc(-c4cnn(C(CC#N)C5CCCC5)c4)c4cc[nH]c4n3)cc2OCC1 (stereo not drawn) [Example 27]	6.30 to 7.30
CN1CCOCCOc2cc(Nc3nc(-c4cnn(C(CC#N)C5CCCC5)c4)c4cc[nH]c4n3)ccc2OCC1 (stereo not drawn) [Example 26]	5.30 to 6.30

# get_value(readout='pEC50', item= CCS(=O)(=O)N1CC(CC#N)(n2cc(-c3nc(Nc4ccc5c(c4)OCCN(C)CCO5)nc4[nH]ccc34)cn2)C1 [Example 28] )
6.30 to 7.30

----------
pIC50: −log10 of the molar value.
Record set of pIC50 for target or system CDK9 (Homo sapiens).

molecule	pIC50
CN1CCOCCOc2ccc(Nc3ncc(F)c(-c4ccc(C(=O)NCC#N)cc4)n3)cc2OCC1 [Example 44]	> 7.30

API: value(readout= pIC50, system= CDK9 (Homo sapiens), query= CN1CCOCCOc2cc(Nc3ncc(F)c(-c4ccc(C(=O)NCC#N)cc4)n3)ccc2OCC1 [Example 16] )
> 7.30

----------
Below: a set of entries, each annotated with reported inhibition at 0.1 µM.
- assayed_target: UniProt:P50613
- procedure_summary: experiment of inhibiting kinase activity (Caliper mobility shift assay), CDK7
- Type: biochemical
- experimental_setup: at 100 nM; read-out: inhibition rate CDK7

molecule	experimental_value
CN1CCOc2ccc(Nc3nc(-c4ccc(C(=O)NCC#N)cc4)c4cc[nH]c4n3)cc2OCC1 [Example 2]	25 to 39%
CN1CCOCCOc2ccc(Nc3ncc(F)c(-c4ccc(C(=O)NCC#N)cc4)n3)cc2OCC1 [Example 44]	40 to 79%
CC(C)S(=O)(=O)c1ccccc1Nc1nc(Nc2ccc3c(c2)OCCN(C)CCO3)nc2[nH]ccc12 [Example 35]	40 to 79%
CN1CCOCCOc2cc(Nc3nc(Nc4ccccc4P(C)(C)=O)c4cn[nH]c4n3)ccc2OCC1 [Example 33]	40 to 79%
CN1CCOc2ccc(Nc3nc(-c4cn(C)c5ccccc45)c4cn[nH]c4n3)cc2OCC1 [Example 5]	25 to 39%

Request the reported inhibition at 0.1 µM associated with CN1CCOc2ccc(Nc3ncc(F)c(-c4cnn(C(CC#N)C5CCCC5)c4)n3)cc2OCC1 (stereo not drawn) [Example 25]
40 to 79%

Thanks! And CC(C)S(=O)(=O)c1ccccc1Nc1nc(Nc2ccc3c(c2)OCCOCCN(S(C)(=O)=O)CCO3)nc2[nH]ccc12 [Example 99] ?
> 80%

Note, next up: CC(C)S(=O)(=O)c1ccccc1Nc1nc(Nc2ccc3c(c2)OCCOCCN(C)CCO3)nc2[nH]ncc12 [Example 11]
40 to 79%

Similarly, CN1CCOCCOc2ccc(Nc3nc(Nc4cccc(S(=O)(=O)NC(C)(C)C)c4)c4cc[nH]c4n3)cc2OCC1 [Example 19] ?
40 to 79%

Next: Cc1nc2c(F)cc(-c3nc(Nc4ccc5c(c4)OCCOCCN(C)CCO5)nc4[nH]ccc34)cc2n1C(C)C [Example 31]
40 to 79%

Now consider CN1CCOCCOc2cc(Nc3ncc(F)c(-c4ccc(C(=O)NCC#N)cc4)n3)ccc2OCC1 [Example 16] .
> 80%

Please do the same for CN1CCOCCOc2cc(Nc3nc(Nc4cccc(S(N)(=O)=O)c4)c4cc[nH]c4n3)ccc2OCC1 [Example 67] as well.
40 to 79%

Let us now turn to CN1CCOCCOc2cc(Nc3nc(Nc4cccc(S(=O)(=O)NC(C)(C)C)c4)c4cc[nH]c4n3)ccc2OCC1 [Example 20]
40 to 79%

Let us now turn to CN1CCOCCOc2cc(Nc3ncc(F)c(Nc4ccc5[nH]ccc5c4)n3)ccc2OCC1 [Example 30]
40 to 79%

How about CCS(=O)(=O)N1CC(CC#N)(n2cc(-c3nc(Nc4ccc5c(c4)OCCN(C)CCO5)ncc3F)cn2)C1 [Example 37] ?
25 to 39%

----------
pIC50: −log10 of the molar value.
Reported pIC50, CDK7 (Homo sapiens, UniProt P50613).

Fill in: pIC50 of CN1CCOCCOc2ccc(Nc3nc(Nc4cccc(S(=O)(=O)NC(C)(C)C)c4)c4cc[nH]c4n3)cc2OCC1 is ___
> 7.30

Then CC(C)S(=O)(=O)c1ccccc1Nc1nc(Nc2ccc3c(c2)OCCN(C)CCOCCO3)nc2[nH]ncc12 ?
> 7.30

Would you mind doing CC(C)S(=O)(=O)c1ccccc1Nc1nc(Nc2ccc3c(c2)OCCN(C)CCO3)nc2[nH]ccc12 as well?
> 7.30

----------
- assayed_target: CDK9 (Homo sapiens, UniProt P50750)
- Sequence (P50750 whole entry): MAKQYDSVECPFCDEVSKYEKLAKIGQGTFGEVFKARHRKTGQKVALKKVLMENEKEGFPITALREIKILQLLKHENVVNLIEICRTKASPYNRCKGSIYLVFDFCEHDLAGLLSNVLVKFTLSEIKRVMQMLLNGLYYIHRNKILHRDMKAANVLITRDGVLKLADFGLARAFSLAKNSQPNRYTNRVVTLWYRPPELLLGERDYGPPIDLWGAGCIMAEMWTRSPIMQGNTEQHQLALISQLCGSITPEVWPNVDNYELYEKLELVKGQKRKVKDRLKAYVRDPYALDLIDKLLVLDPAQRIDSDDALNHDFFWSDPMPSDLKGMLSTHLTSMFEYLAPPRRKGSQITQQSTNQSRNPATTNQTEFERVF
- Sequence (O60563 whole entry partner): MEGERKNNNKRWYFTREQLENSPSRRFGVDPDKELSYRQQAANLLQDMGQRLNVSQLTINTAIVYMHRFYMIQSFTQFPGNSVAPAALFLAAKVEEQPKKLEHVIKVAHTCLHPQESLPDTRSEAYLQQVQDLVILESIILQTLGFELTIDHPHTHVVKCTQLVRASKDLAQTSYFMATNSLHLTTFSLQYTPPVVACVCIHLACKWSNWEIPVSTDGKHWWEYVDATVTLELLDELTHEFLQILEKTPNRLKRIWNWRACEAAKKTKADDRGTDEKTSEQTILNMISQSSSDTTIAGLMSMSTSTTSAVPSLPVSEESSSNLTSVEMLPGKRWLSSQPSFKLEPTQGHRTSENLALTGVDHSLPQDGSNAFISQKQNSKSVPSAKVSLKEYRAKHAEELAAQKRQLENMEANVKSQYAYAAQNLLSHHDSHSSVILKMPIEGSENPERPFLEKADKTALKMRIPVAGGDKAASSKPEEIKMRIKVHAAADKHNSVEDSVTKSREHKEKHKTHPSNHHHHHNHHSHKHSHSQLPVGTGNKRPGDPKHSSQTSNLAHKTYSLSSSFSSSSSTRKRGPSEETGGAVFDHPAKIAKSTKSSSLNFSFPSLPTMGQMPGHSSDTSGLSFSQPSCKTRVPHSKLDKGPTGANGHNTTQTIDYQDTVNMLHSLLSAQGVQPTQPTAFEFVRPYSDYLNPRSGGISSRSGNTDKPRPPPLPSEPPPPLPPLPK
- procedure_summary: experiment of inhibiting kinase activity (Caliper mobility shift assay), CDK9
- Format: biochemical
- experimental_setup: at 10 nM; read-out: inhibition rate CDK9
attribute_measured: inhibition at 0.01 µM

Example cases with answers are listed next.
smiles_str	assayed_target	inhibition at 0.01 µM
CN1CCOCCOc2ccc(Nc3ncc(F)c(-c4ccc(C(=O)NCC#N)cc4)n3)cc2OCC1	CDK9 (Homo sapiens, UniProt P50750)	40 to 79%
CN1CCOCCOc2cc(Nc3ncc(F)c(-c4ccc(C(=O)NCC#N)cc4)n3)ccc2OCC1	CDK9 (Homo sapiens, UniProt P50750)	40 to 79%
COc1ccc(F)cc1-c1nc(Nc2ccc3c(c2)OCCOCCN(C)CCO3)ncc1F	CDK9 (Homo sapiens, UniProt P50750)	40 to 79%
Cc1nc2c(F)cc(-c3nc(Nc4ccc5c(c4)OCCOCCN(C)CCO5)nc4[nH]ccc34)cc2n1C(C)C	CDK9 (Homo sapiens, UniProt P50750)	25 to 39%

Turning now to a further molecule:
If you can, please state the reported inhibition at 0.01 µM value of COc1ccc(F)cc1-c1nc(Nc2ccc3c(c2)OCCN(C)CCOCCO3)ncc1F .
40 to 79%

----------
Measured inhibition at 0.01 µM, listed per entry.
- assayed_target: JAK3 (Homo sapiens, UniProt P52333)
- procedure_summary: experiment of inhibiting kinase activity (Caliper mobility shift assay), JAK3
- Format: biochemical
- experimental_setup: at 10 nM; read-out: inhibition rate JAK3
- Protocol: The inhibition rates of tested compounds on JAK1, JAK2, JAK3, TYK2, CDK7, CDK9, EGFR (T790M) and LRRK2 kinases were measured. The test concentrations of the compounds were 10 nM and 100 nM, and the detection was performed by replicate wells. […] The inhibitory effects of the compounds on JAK1, JAK2, JAK3, CDK7 and CDK9 kinases were detected by the method of Caliper mobility shift assay. […] The conversion rate was read by Caliper EZ Reader. […]

Reference set (4 entries):
compound	inhibition at 0.01 µM
CC(C)S(=O)(=O)c1ccccc1Nc1nc(Nc2ccc3c(c2)OCCOCCN(C)CCO3)nc2[nH]ncc12	40 to 79%
CN1CCOCCOc2cc(Nc3nc(Nc4ccccc4P(C)(C)=O)c4cc[nH]c4n3)ccc2OCC1	> 80%
CN1CCOc2ccc(Nc3nc(-c4cnn(C(CC#N)C5CCCC5)c4)c4cc[nH]c4n3)cc2OCC1 (stereo not drawn)	40 to 79%
CC(C)S(=O)(=O)c1ccccc1Nc1nc(Nc2ccc3c(c2)OCCOCCN(C)CCO3)nc2[nH]ccc12	40 to 79%

# query: inhibition at 0.01 µM | item CN1CCOc2ccc(Nc3nc(-c4cnn(C5CN(S(C)(=O)=O)C5)c4)c4cc[nH]c4n3)cc2OCC1 | system: JAK3 (Homo sapiens, UniProt P52333)
25 to 39%

Similarly, CN1CCOCCOc2cc(Nc3nc(Nc4ccccc4P(C)(C)=O)c4cn[nH]c4n3)ccc2OCC1 ?
25 to 39%

Note, next up: CC(C)S(=O)(=O)c1ccccc1Nc1nc(Nc2ccc3c(c2)OCCN(C)CCOCCO3)nc2[nH]ccc12
40 to 79%

Then CCS(=O)(=O)N1CC(CC#N)(n2cc(-c3nc(Nc4ccc5c(c4)OCCN(C)CCOCCO5)nc4[nH]ccc34)cn2)C1 ?
> 80%

Also check CN1CCOCCOc2ccc(Nc3ncc(F)c(-c4cn(C)c5ccccc45)n3)cc2OCC1
25 to 39%

Origin of measurements: patent EP4592286A1
